- method summary: chemical genetic growth profiling, strain panel (AID 1159580);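 further: tested at 20 µM; growth read once vehicle control cultures reached saturation at 30 °C; 1 = growth at the plate median or of vehicle wells; lower values mean less growth of the strain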
- test context: S. cerevisiae deletion strains, growth OD, locus YKR091W, strain srl3, stronger effect = lower value
The whole screen tested about 5,500 compounds, of which about 2,000 (36%) were called active. Another 18% or so got no clear call; they are omitted. The list shows a part of the results.
experimental endpoint: normalized growth
Form field (numeric): enter value without unit.

Input line: Give normalized growth for the following compound: CC1=NN(c2ccccc2)C(=O)C1
Output line: 0.986

Input line: Give normalized growth for the following compound: O=C(O)[C@H](O)[C@@](O)(Cc1ccc(O)cc1)C(=O)O
Output line: 1

Input line: Give normalized growth for the following compound: CCC1(CC)C(=O)C=CNC1=O
Output line: 1

Input line: Give normalized growth for the following compound: NCCc1c[nH]c2ccccc12
Output line: 0.976

Input line: Give normalized growth for the following compound: CC(=O)Oc1ccccc1C(=O)O
Output line: 1

Input line: Give normalized growth for the following compound: COc1ccc2c(=O)ccoc2c1
Output line: 1.02

Input line: Give normalized growth for the following compound: NCCc1cc(O)c(O)cc1O
Output line: 1

Input line: Give normalized growth for the following compound: CN(C)CCc1c[nH]c2ccc(CS(=O)(=O)N3CCCC3)cc12
Output line: 1.01

Input line: Give normalized growth for the following compound: COc1cc2c(cc1O)CCNC2C (centres undefined)
Output line: 0.991

###

- method summary: chemical genetic growth profiling, strain panel (AID 1159580);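 further: tested at 20 µM; growth read once vehicle control cultures reached saturation at 30 °C; 1 = growth at the plate median or of vehicle wells; lower values mean less growth of the strain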
- test context: S. cerevisiae deletion strains, growth OD, locus YOR083W, strain WHI5, stronger effect = lower value
Screen size: about 5,500 compounds; about 2,000 (36%) were called active. Roughly 18% stayed inconclusive and do not appear here. Some of the results follow.
experimental endpoint: normalized growth
Form field (numeric): enter value without unit.

Input line: Give normalized growth for the following compound: CCOc1ccc(C(=O)c2cc(O)c(OC)c(OC)c2O)cc1
Output line: 0.977

Input line: Give normalized growth for the following compound: CC(=O)[O][Hg][c]1ccccc1
Output line: 0.0628

Input line: Give normalized growth for the following compound: CC(=O)Oc1ccccc1C(=O)O
Output line: 0.929

Input line: Give normalized growth for the following compound: CCC1(CC)C(=O)C=CNC1=O
Output line: 0.984

Input line: Give normalized growth for the following compound: OC(c1cc(C(F)(F)F)nc2c(C(F)(F)F)cccc12)C1CCCCN1 (stereo unspecified)
Output line: 1.03

Input line: Give normalized growth for the following compound: COc1ccc(C(=O)c2ccccc2)c(O)c1O
Output line: 0.953

Input line: Give normalized growth for the following compound: NC(=O)NO
Output line: 0.993

Input line: Give normalized growth for the following compound: CCOc1ccc(C(=O)c2ccc(OC)c(O)c2O)cc1
Output line: 0.953

Input line: Give normalized growth for the following compound: CNCC[C@@H](Oc1ccccc1)c1ccccc1
Output line: 0.981

Input line: Give normalized growth for the following compound: C[C@]12CCC3C(CC[C@H]4C[C@H](OS(=O)(=O)O)CC[C@]34C)C1CCC2=O (stereo partly specified)
Output line: 1.04

Input line: Give normalized growth for the following compound: CCCCCCCCCCCCCCCCCCOCC(O)CO (stereo unspecified)
Output line: 1.02

Input line: Give normalized growth for the following compound: COc1cc2cc3c4cc(OC)c(OC)cc4cc[n+]3c(C)c2cc1OC
Output line: 0.985

Input line: Give normalized growth for the following compound: CC(=O)O[C@@H]1CC[C@]2(C)C3CC[C@]4(C)C(=O)CCC4C3CC[C@H]2C1 (stereo partly specified)
Output line: 0.975

Input line: Give normalized growth for the following compound: c1ccc([C@H]2CN3CCSC3=N2)cc1
Output line: 0.995

Input line: Give normalized growth for the following compound: COc1cnc(NS(=O)(=O)c2ccc(N)cc2)nc1
Output line: 0.943

Input line: Give normalized growth for the following compound: CCOc1ccc(NC(C)=O)cc1
Output line: 1.02

Input line: Give normalized growth for the following compound: CCN(CC)CCNC(=O)c1cc(Cl)c(N)cc1OC
Output line: 0.964

Input line: Give normalized growth for the following compound: COc1ccc2c(c1)[C@]13CCCC[C@H]1[C@H](C2)N(C)CC3
Output line: 0.947

Input line: Give normalized growth for the following compound: CC(NCCC(c1ccccc1)c1ccccc1)c1ccccc1 (stereo unspecified)
Output line: 0.846

Input line: Give normalized growth for the following compound: CC(=O)O[C@H]1CC[C@]2(C)C3CC(=O)[C@]4(C)C(C(C)=O)=CCC4C3CC[C@H]2C1 (stereo partly specified)
Output line: 1

Input line: Give normalized growth for the following compound: COc1ccc2c(=O)ccoc2c1
Output line: 1.02

###

Could you please report measured normalized growth for the items listed next?
- method summary: chemical genetic growth profiling, strain panel (AID 1159580);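 further: tested at 20 µM; growth read once vehicle control cultures reached saturation at 30 °C; 1 = growth at the plate median or of vehicle wells; lower values mean less growth of the strain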
- test context: S. cerevisiae deletion strains, growth OD, locus YLR342W, strain FKS1 (second series), stronger effect = lower value
Among all 5,500 compounds or so, about 2,000 (36%) were called active. Roughly 18% stayed inconclusive and do not appear here. Some of the results follow. Where a SMILES comes first, the peptide text is derived from it. Side-chain parts run from the residue outwards. [ ]: non-standard residue; d: D form. The star is where a group is joined. X1 = CCC(C)C(N)C1=NC(C(=O)*)CS1; Orn = NCCC[CH](N)C(=O)O

Input line: Give normalized growth for the following molecule: COc1ccc2c(c1OC)OC[C@@H](c1ccc(OC)c(OC)c1OC)C2
Output line: 1.04 (inactive)

Input line: Give normalized growth for the following molecule: NC[C@H]1O[C@H](O[C@H]2C(O[C@@H]3O[C@H](CO)[C@@H](O)[C@H]3O)[C@@H](O)[C@H](N)C[C@@H]2N)[C@H](N)[C@@H](O)[C@@H]1O (stereo not given in full)
Output line: 1.03 (inactive)

Input line: Give normalized growth for the following molecule: CCCCCCCCCCCCCCCCCCOCC(O)CO (stereo not given)
Output line: 1.04 (inactive)

Input line: Give normalized growth for the following molecule: CCC(C)C(N)C1=NC(C(=O)NC(CC(C)C)C(=O)NC(CCC(=O)O)C(=O)NC(C(=O)NCCCCC2NC(=O)C(CC(N)=O)NC(=O)C(CC(=O)O)NC(=O)C(Cc3cnc[nH]3)NC(=O)C(Cc3ccccc3)NC(=O)C(C(C)CC)NC(=O)C(CCCN)NC2=O)C(C)CC)CS1 (stereo not drawn) (cyclo(DNK([Ile-Glu-Leu-X1])[Orn]IFH); configuration not given here)
Output line: 1.03 (inactive)

Input line: Give normalized growth for the following molecule: Cc1cc(=O)n(-c2ccccc2)n1C
Output line: 1.02 (inactive)

Input line: Give normalized growth for the following molecule: CC(=O)OCC(=O)[C@@]1(O)CCC2C3CC[C@@H]4C[C@H](OC(C)=O)CC[C@]4(C)C3C(=O)C[C@@]21C (stereo not given in full)
Output line: 1.01 (inactive)

Input line: Give normalized growth for the following molecule: CC[C@H]1CN2CCc3cc(OC)c(OC)cc3C2C[C@@H]1CC1NCCc2cc(OC)c(OC)cc21 (stereo not given in full)
Output line: 0.987 (inactive)

Input line: Give normalized growth for the following molecule: CC1(C)C(=O)[C@@H]2O[C@@H]2[C@@]2(C)C1CC(=O)[C@]1(C)C2CC[C@@]2(C)[C@H](c3ccoc3)OC(=O)[C@H]3O[C@]321 (stereo not given in full)
Output line: 1.03 (inactive)

Input line: Give normalized growth for the following molecule: O=C(O)c1cc(=O)c2c(Cl)cc(Cl)cc2[nH]1
Output line: 1.02 (inactive)

Input line: Give normalized growth for the following molecule: O=C(OC[C@H]1O[C@H](OC(=O)c2cc(O)c(O)c(OC(=O)c3cc(O)c(O)c(O)c3)c2)[C@H](OC(=O)c2cc(O)c(O)c(OC(=O)c3cc(O)c(O)c(O)c3)c2)[C@@H](OC(=O)c2cc(O)c(O)c(OC(=O)c3cc(O)c(O)c(O)c3)c2)[C@@H]1OC(=O)c1cc(O)c(O)c(OC(=O)c2cc(O)c(O)c(O)c2)c1)c1cc(O)c(O)c(OC(=O)c2cc(O)c(O)c(O)c2)c1
Output line: 0.119 (active)

Input line: Give normalized growth for the following molecule: COc1cc(NS(=O)(=O)c2ccc(N)cc2)ncn1
Output line: 1.04 (inactive)

Input line: Give normalized growth for the following molecule: CC(=O)O[C@H]1CC[C@]2(C)C3CC(=O)[C@]4(C)C(C(C)=O)=CCC4C3CC[C@H]2C1 (stereo not given in full)
Output line: 0.947 (inactive)

Input line: Give normalized growth for the following molecule: NC(=O)NO
Output line: 1 (inactive)

Input line: Give normalized growth for the following molecule: CC1(C)S[C@@H]2[C@H](NC(=O)Cc3ccccc3)C(=O)N2[C@H]1C(=O)O
Output line: 1.01 (inactive)

Input line: Give normalized growth for the following molecule: CC(=O)O[C@H]1CC[C@]2(C)C3CC[C@@]4(C)C(CC5O[C@@]6(CCC(C)CO6)[C@@H](C)C54)C3CC[C@@H]2C1 (stereo not given in full)
Output line: 1.01 (inactive)
